- target-under-test: recombinant SARS-CoV-2 Main protease (Mpro) (Severe acute respiratory syndrome coronavirus 2 (2019-nCoV) (SARS-CoV-2))
- protocol: Cov Mpro Biochemical IC50 Assay
- experimental-conditions: recombinant SARS-CoV-2 Mpro 7.5 nM, fluorogenic peptide substrate 40 μM; read-out: MPro IC50
pIC50: −log10 of the molar value.
Could you label it Yes if measured pIC50 is 8 or higher, and No otherwise?

INSERT INTO results (molecule, group_label) VALUES
  ('N#Cc1cncc(-c2cccc(Cl)c2-c2cc3[nH]c(=O)n(-c4cncc5ccccc45)c(=O)c3s2)c1 [Example 673]', 'Yes'),
  ('COc1cc(-c2cc3[nH]c(=O)n(-c4cc(C)cnn4)c(=O)c3s2)c(Cl)cc1F [Example 746]', 'Yes'),
  ('COCCn1cc2cncc(-n3c(=O)c4sc(-c5cc(OC)c(F)cc5Cl)cc4n(CCC#N)c3=O)c2n1 [Example 914]', 'Yes'),
  ('Cn1ncc2cncc(-n3c(=O)c4sc(-c5ccc(F)cc5C#N)cc4n(CCC#N)c3=O)c21 [Example 785]', 'No'),
  ('COc1cc(-c2cc3c(s2)c(=O)n(-c2cncc4cnn(C)c24)c(=O)n3CCC#N)c(C#N)cn1 [Example 776]', 'No'),
  ('CNC(=O)CCn1c(=O)n(-c2cncc(C3CC3)c2)c(=O)c2sc(-c3ccccc3Cl)cc21 [Example 619]', 'No'),
  ('Cc1cnc(Cl)c(-c2cc3c(s2)c(=O)n(-c2cncc4cnn(C)c24)c(=O)n3CCC#N)c1 [Example 1020]', 'No'),
  ('COc1cc(-c2cc3c(s2)c(=O)n(-c2cncc(C#CC(C)(C)O)c2)c(=O)n3CCC#N)c(Cl)cc1F [Example 1038]', 'Yes'),
  ('COc1cc(-c2cc3c(s2)c(=O)n(-c2cncc4nc(C5CCC5)n(C)c24)c(=O)n3CCC#N)c(Cl)cc1F [Example 755]', 'No'),
  ('COc1cc(-c2cc3c(s2)c(=O)n(-c2cncc4ccccc24)c(=O)n3CCC#N)c(Cl)cc1F (single isomer, unassigned) [Example 637]', 'Yes'),
  ('Cn1nnc2cncc(-n3c(=O)c4sc(-c5cc(Cl)ccc5C#N)cc4n(CCC#N)c3=O)c21 [Example 886]', 'No'),
  ('COc1cc(-c2cc3[nH]c(=O)n(-c4cncc5ccccc45)c(=O)c3cc2OC)c(C#N)cc1F (single isomer, unassigned) [Example 572]', 'Yes'),
  ('COc1ccc(Cl)c(-c2ccc3c(=O)n(-c4cncc5c4CCCO5)c(=O)[nH]c3c2)c1 [Example 597]', 'No'),
  ('COc1cc(-c2cc3c(s2)c(=O)n(-c2cncc(C#N)c2)c(=O)n3CCC#N)c(Cl)cc1F [Example 1040]', 'Yes'),
  ('O=c1[nH]c2cc(-c3c(Cl)cccc3-c3cn4ncnc4c4c3CCC4)sc2c(=O)n1-c1cncc2ccccc12 [Example 520]', 'Yes');
